# Test system: BCC1 cells (Homo sapiens)
# TEST PROTOCOL: Ratio of drug uptake in human BCC1 cells in serum free medium to drug uptake in human BCC1 cells in medium containing 10% fetal calf serum by fluorescent microscopy
Catalogue of Ratio readings, one per entry.

MOLECULE: CCC1=C(C)c2cc3[nH]c(cc4nc(c5c6[nH]c(cc1n2)c(C)c6C(=O)C5)C(CCC(=O)OC)[C@@H]4C)c(C)c3C(C)OCc1cccc(I)c1 (some centres undefined)
Ratio: 5

MOLECULE: CC[C@H]1c2cc3[nH]c4c(c5nc(cc6[nH]c(cc(n2)[C@@H]1C)c(C(C)OCc1cccc(I)c1)c6C)C(C)=C5CCC(=O)O)CC(=O)c4c3C (some centres undefined)
Ratio: 4

MOLECULE: CCC1=C(C)c2cc3[nH]c(cc4nc(c5c6[nH]c(cc1n2)c(C)c6C(=O)C5)C(CCC(=O)O)[C@@H]4C)c(C)c3C(C)OCc1cccc(I)c1 (some centres undefined)
Ratio: 4

MOLECULE: CCc1c(C)c2cc3nc(c4c5[nH]c(cc6nc(cc1[nH]2)C(C)=C6C(C)OCc1cccc(I)c1)c(C)c5C(=O)C4)[C@@H](CCC(=O)O)[C@@H]3C (some centres undefined)
Ratio: 4

From: ChEMBL document CHEMBL2157878
